- Protocol Notes: NMTRC 002: DFMO serum pharmacokinetics in children with NB
- Conditions: human, serum, po, 1000 mg/m2, Cmax mean ± SD, 1000 mg/m^2 PO BID, Cycle 2 (with etoposide)
Experimental Readout: Cmax (ng/mL)
Answers are plain numbers, in ng/mL.

Recorded Cmax for NCCCC(N)(C(=O)O)C(F)F (stereo not shown) , please?
14300

---

- Protocol Notes: NMTRC 002: DFMO serum pharmacokinetics in children with NB
- Conditions: human, serum, po, 750 mg/m2, tmax, 750 mg/m^2 PO BID, Cycle 2 (with etoposide)
Experimental Readout: Tmax (h)
One number for each entry, in h.

Look up Tmax: NCCCC(N)(C(=O)O)C(F)F (stereo not shown)
2.6

---

- Protocol Notes: NMTRC 002: DFMO serum pharmacokinetics in children with NB
- Conditions: human, serum, oral, 500 mg/m2
Experimental Readout: AUC(0-t) (ng·h/mL)
Numbers only, in ng·h/mL.

Requested field: AUC(0-t). Item: NCCCC(N)(C(=O)O)C(F)F (stereo not shown)
39000

---

- Protocol Notes: NMTRC 002: DFMO serum pharmacokinetics in children with NB
- Conditions: human, serum, po, 500 mg/m2, tmax, 500 mg/m^2 PO BID, Cycle 1
Experimental Readout: Tmax (h)
Give bare numbers, in h.

Name the reported Tmax value associated with the molecule NCCCC(N)(C(=O)O)C(F)F (stereo not shown) [DFMO]
3.75

---

- Protocol Notes: NMTRC 002: DFMO serum pharmacokinetics in children with NB
- Conditions: human, serum, po, 750 mg/m2, Cmax mean ± SD, 750 mg/m^2 PO BID, Cycle 2 (with etoposide)
Experimental Readout: Cmax (ng/mL)
Numbers only, in ng/mL.

Sample NCCCC(N)(C(=O)O)C(F)F (stereo not shown) [DFMO] — what was its Cmax?
14200

---

- Protocol Notes: NMTRC 002: DFMO serum pharmacokinetics in children with NB
- Conditions: human, serum, po, 500 mg/m2, Cmax mean ± SD, 500 mg/m^2 PO BID, Cycle 1
Experimental Readout: Cmax (ng/mL)
Give bare numbers, in ng/mL.

Tell me the measured Cmax of NCCCC(N)(C(=O)O)C(F)F (stereo not shown) , please.
9540

---

- Protocol Notes: NMTRC 002: DFMO serum pharmacokinetics in children with NB
- Conditions: human, serum, po, 1000 mg/m2, tmax, 1000 mg/m^2 PO BID, Cycle 1
Experimental Readout: Tmax (h)
Give bare numbers, in h.

For the compound NCCCC(N)(C(=O)O)C(F)F (stereo not shown) [DFMO] , what Tmax is on record?
3.17

---

- Protocol Notes: NMTRC 002: DFMO serum pharmacokinetics in children with NB
- Conditions: human, serum, oral, mean tmax, all dose groups
Experimental Readout: Tmax

Quick one: Tmax of NCCCC(N)(C(=O)O)C(F)F (stereo not shown) ?
2.5 to 3.75 h

---

- Protocol Notes: NMTRC 002: DFMO serum pharmacokinetics in children with NB
- Conditions: human, serum, po, 1000 mg/m2, tmax, 1000 mg/m^2 PO BID, Cycle 2 (with etoposide)
Experimental Readout: Tmax (h)
One number for each entry, in h.

What value of Tmax has been reported for the following compound? NCCCC(N)(C(=O)O)C(F)F (stereo not shown)
3

---

- Protocol Notes: NMTRC 002: DFMO serum pharmacokinetics in children with NB
- Conditions: human, serum, po, 1500 mg/m2, tmax, 1500 mg/m^2 PO BID, Cycle 1
Experimental Readout: Tmax (h)
One number for each entry, in h.

Fill blank: measured Tmax of the compound NCCCC(N)(C(=O)O)C(F)F (stereo not shown) is ____.
2.88

Hello, the source for this data is patent US12582625B2, in case you need it.
